- measured.on: human GPR119 receptor (Homo sapiens, UniProt Q8TDV5, S329A/T327A)
- Construct: N-terminal leader […]; expressed in transfected cells
- Sequence (Q8TDV5 with tags, fused parts or gaps T327A/S329A): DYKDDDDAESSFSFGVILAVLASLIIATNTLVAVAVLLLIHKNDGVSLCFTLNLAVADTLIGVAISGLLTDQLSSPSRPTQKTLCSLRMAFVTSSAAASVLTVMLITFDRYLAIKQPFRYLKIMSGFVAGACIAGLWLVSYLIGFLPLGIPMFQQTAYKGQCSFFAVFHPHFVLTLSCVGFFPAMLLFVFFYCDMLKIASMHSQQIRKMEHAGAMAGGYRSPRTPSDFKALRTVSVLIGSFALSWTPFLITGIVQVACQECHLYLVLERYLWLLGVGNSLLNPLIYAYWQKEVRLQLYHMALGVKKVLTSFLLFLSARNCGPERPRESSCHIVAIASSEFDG
- assay.info: cAMP assay (LANCE cAMP-384) in HEK293 cells stably expressing mutant human GPR119 receptor
- Assay type: cell-based
- test.context: the 43rd table, compounds 75-1 to 75-38; read-out: EC50
Lab note: compare EC50 with 100 nM, writing Satisfied if less and Not satisfied if equal or more.

molecule	measured.on	assigned.category
CC(C)OC(=O)N1CCC(ON=C2CCN(c3cc(F)c(CC(=O)N4CCC(CN)CC4)cc3F)CC2)CC1 [Example 75-9]	human GPR119 receptor (Homo sapiens, UniProt Q8TDV5, S329A/T327A)	Not satisfied
CC(C)OC(=O)N1CCC(ON=C2CCN(c3cc(F)c(CC(=O)N4CCC(N)CC4)cc3F)CC2)CC1 [Example 75-12]	human GPR119 receptor (Homo sapiens, UniProt Q8TDV5, S329A/T327A)	Satisfied
CC(C)OC(=O)N1CCC(ON=C2CCN(c3cc(F)c(CC(=O)N4CCC(CN(C)C)CC4)cc3F)CC2)CC1 [Example 75-38]	human GPR119 receptor (Homo sapiens, UniProt Q8TDV5, S329A/T327A)	Satisfied
CC(C)OC(=O)N1CCC(ON=C2CCN(c3cc(F)c(CC(=O)NC[C@H]4CCCN4)cc3F)CC2)CC1 [Example 75-11]	human GPR119 receptor (Homo sapiens, UniProt Q8TDV5, S329A/T327A)	Not satisfied
CC(C)OC(=O)N1CCC(ON=C2CCN(c3cc(F)c(CC(=O)N4CCC[C@@H](N)C4)cc3F)CC2)CC1 [Example 75-14]	human GPR119 receptor (Homo sapiens, UniProt Q8TDV5, S329A/T327A)	Satisfied
CC(C)OC(=O)N1CCC(ON=C2CCN(c3cc(F)c(CC(=O)N4CC[C@H](CN)C4)cc3F)CC2)CC1 [Example 75-15]	human GPR119 receptor (Homo sapiens, UniProt Q8TDV5, S329A/T327A)	Satisfied

Please examine the following record next.
Confirm or reject: EC50 of CNC1CCN(C(=O)Cc2cc(F)c(N3CCC(=NOC4CCN(C(=O)OC(C)C)CC4)CC3)cc2F)CC1 [Example 75-21] lies strictly below 100 nM Not satisfied

---

- measured.on: human GPR119 receptor (Homo sapiens, UniProt Q8TDV5, S329A/T327A)
- Construct: N-terminal leader […]; expressed in transfected cells
- assay.info: cAMP assay (LANCE cAMP-384) in HEK293 cells stably expressing mutant human GPR119 receptor
- Assay type: cell-based
- test.context: cAMP accumulation, HEK293 cells stably expressing mutant human GPR119; read-out: EC50
This listing pairs compounds with measured EC50.
Expressed in nM, but write only the number.

chemical.structure	measured.on	EC50, nM
CC(C)OC(=O)N1CCC(ON=C2CCN(c3ncc(Br)cn3)CC2)CC1	human GPR119 receptor (Homo sapiens, UniProt Q8TDV5, S329A/T327A)	1180
CC(C)OC(=O)N1CCC(ON=C2CCN(c3cc(F)c(CN(C)S(C)(=O)=O)cc3F)CC2)CC1	human GPR119 receptor (Homo sapiens, UniProt Q8TDV5, S329A/T327A)	150

Kindly consider the entry below.
Quick one: give measured EC50 for CC(C)OC(=O)N1CCC(ON=C2CCN(c3cc(F)c(C(N)=O)cc3F)CC2)CC1 25

Every entry's value here was drawn from patent US8293729B2.
